Assay: protease stability score; higher = more stable; yeast display proteolysis, trypsin and chymotrypsin;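 further: relative to predicted unfolded state with 0 unfolded-like and 1 meaning tenfold more protease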
Documented protease stability score across a set of sequences
Provide a numeric answer; units are not to be included.

Record excerpt, results attached:
- POLYMER SEQUENCE: "DEDEERAKKLAEDTLHSWRTGNEEHMIKLADPNVRVEWNGKDFVGREEFKRSVHKMLRDLGVDNIEVRLDHIEVDEDHAIVYGEVIYNGRISQIEWVFRKVNGRWYLHRMHIRDR"
  protease stability score: 1.54
- POLYMER SEQUENCE: "DEKEKIVHEMFKLWVDLLLTGDEEILRRMLDPNTRLDFNGVDVIGMERIADHLRHWRFHDIRIEHMRVYNGRVEVETRLDGYWDGRRIRTTSHILLVVVGDKIKEIHIKID"
  protease stability score: 2.38

// next item, protease stability score requested
Query string: For the sequence `SEEVEHAEKVMRHTVHNIETGDEETWSNLADPNVLFQQGEFNLHGRELMFEWVRKYYEKIKNARIEIEDVRVFDGQIEFDVTWRVGDKHLKVHLHIEVINGRITEVRVDEK` , what protease stability score is on record?
Result string: 0.98
